Values compiled from PubChem BioAssay (NCI).

System: HOP-62 NSCLC
Assay: NCI tumour cell line growth inhibition, 48 h
Please respond with reported TGI for every item in the list.

Param item: Cn1c(=O)c2[nH]c(CSCc3ccccc3)nc2n(C)c1=O ; param system: HOP-62 NSCLC; output TGI: > 100 µM

Record N#CCC(=O)N1CCCOCCC1 ; system HOP-62 NSCLC; TGI = > 100 µM

Known value: HOP-62 NSCLC TGI of the compound Clc1ccccc1CN1COc2c(cc(Cl)c3cccnc23)C1 equals 18.7 µM

Let me check: Oc1ccc[n+](Cc2ccccc2)c1 , system HOP-62 NSCLC, measured TGI is > 100 µM

// compound CC(C)(O)[C@@H]1CC[C@](C)(C2[C@@H](O)C[C@@]3(C)C4C[C@H](OC5OCC(O)C(O)C5O)[C@H]5C(C)(C)[C@@H](OC6OCC(O)C(O)C6OC6OCC(O)C(O)C6O)CC[C@@]56C[C@@]46CC[C@]23C)O1 (some centres undefined) , assay HOP-62 NSCLC, TGI value: > 100 µM

Assay HOP-62 NSCLC, sample CC1(C)COP(=S)(c2ccccn2)O[C@@H]1c1ccccc1 (some centres undefined) , TGI read: > 100 µM

Record Nc1nc2c(c(=O)[nH]1)CN(CCCN1CCOCC1)CN2 / HOP-62 NSCLC, TGI recorded as > 100 µM

HOP-62 NSCLC TGI of CCOC(=O)/C(=C/c1ccc(C(F)(F)F)cc1)N(CC)CC is > 100 µM

The compound C=CC[C@@]1(OC(C)=O)C(=O)C(=O)OC1C1COC(C)(C)O1 (some centres undefined) , when measured on HOP-62 NSCLC, yielded TGI of > 100 µM

HOP-62 NSCLC data for C=C1C(=O)O[C@@H]2[C@@H]3O[C@@H](C[C@@H]13)[C@](C)(O)CC/C=C(\C)CCC[C@H]2C ; its TGI: 31.7 µM

TGI value, target or system HOP-62 NSCLC, for CC(=O)/C(=C/n1ccc(=O)[nH]c1=S)C(=O)Nc1ccccc1C : > 100 µM

CC(=O)OC(C)(C)C1O[C@@]23OC1C[C@@H](C)[C@@H]2[C@@]1(C)CC[C@@]24C[C@@]25CC[C@H](OC2OCC(O)C(O)C2O)C(C)(C)[C@@H]5CCC4[C@]1(C)[C@H]3O (some centres undefined) tested on HOP-62 NSCLC gave TGI: 37.7 µM

Noted TGI for O=C1CCCC/C1=C(\Br)I , tested on HOP-62 NSCLC: 36.7 µM

Response field TGI (HOP-62 NSCLC) for item C/C(=N\[N+](C)(C)C)c1ccc(C)c(C)c1 : > 100 µM

* * *

System: HCT-116 colon
Assay: NCI tumour cell line growth inhibition, 48 h; in the data active = GI50 below about 0.43 µM; inactive = the rest
// allowed return values: Yes = active, No = inactive

Q) Dear all, I need the recorded test outcome for CC(C)N(Cc1c(F)cccc1F)c1ccc(CO)c(Cl)c1 , thank you.
A) Yes

Q) For this molecule, state the assay outcome: S=c1ssnc1-c1ccccn1
A) No

Q) What is the recorded call for this molecule in the test? COc1cc(-c2nn(-c3ccc(NC(=O)NCCNS(=O)(=O)c4ccc(F)cc4)cc3)cc2-c2ccncc2)ccc1Cl
A) Yes

Q) Tell me the assay call for N#Cc1cnc(=O)n(C2CC(O)C(CO)O2)c1 (centres undefined) please.
A) No

Q) What did the test return for O=C(NC1CCCCC1)OCc1c(COC(=O)NC2CCCCC2)c(-c2ccc(Cl)c(Cl)c2)n2c1CCC2 ?
A) No

Q) What classification did COc1ccc(-c2nc3c(-c4ccccc4)nc(-c4ccccc4)cn3c2-c2ccc(OC)cc2)cc1 end up with in this test?
A) No

Q) State the result this test recorded for COc1cccc(/C=C2\COc3ccc(O)c(O)c3C2=O)c1 .
A) No

Q) Answer briefly: the call reported for CCn1nc(-c2ccc(C(=O)OC)cc2)nc2c(=O)n(C)c(=O)nc1-2 in this assay.
A) Yes

Q) Identify the outcome logged in this assay for the molecule shown: C=CC(C)c1cccc(C=O)c1O (centres undefined)
A) No
